Experiment: APR_HepG2_MitoticArrest_72hr: Apredica 72-hour HepG2 Assay for Mitotic Arrest (AID 2282918)
Conditions: high-content imaging, actives raise or lower the signal
Activity calls are given as the source filed them. The calls were made as follows: active = hit-call score of the fitted dose curve at least 0.9, where 1 is the maximum; inactive = score below 0.9.
Would you mind answering with one of these outcomes? active, inactive

Previously resolved entries follow.
// query Could you kindly confirm the outcome this assay logged for O=C(O)COc1nc(Cl)c(Cl)cc1Cl ?
// result inactive

// query Tell me the recorded outcome of this test for COc1nc(NC(C)C)nc(NC(C)C)n1 .
// result inactive

// query Recorded test call requested for CNC(=O)ON=CC(C)(C)SC
// result inactive

// query Recorded test outcome, item CCCCOC(=O)c1ccccc1C(=O)OCCCC
// result inactive

// query Answer briefly: the call reported for Cc1cc(Cl)ccc1OCC(=O)O in this assay.
// result inactive

// query I'd appreciate the recorded outcome for C#CCOS(=O)OC1CCCCC1Oc1ccc(C(C)(C)C)cc1 (centres undefined) from this test.
// result inactive

// query Recorded call for COc1nc(C)nc(NC(=O)NS(=O)(=O)c2ccccc2CCC(F)(F)F)n1 ?
// result inactive

// query Recorded test outcome, item Cc1c(F)c(F)c(COC(=O)C2C(/C=C(\Cl)C(F)(F)F)C2(C)C)c(F)c1F (centres undefined)
// result inactive

Next:
// query I would be grateful if you could indicate the recorded call for COC(=O)C(C)Oc1ccc(Oc2ccc(Cl)cc2Cl)cc1 (centres undefined) .
// result inactive

// query Query: recorded result category for COc1ccc(C(c2ccc(OC)cc2)C(Cl)(Cl)Cl)cc1 in this test
// result active

// query Lab log entry: OC(c1ccc(Cl)cc1)(c1cncnc1)c1ccccc1Cl (centres undefined) — outcome as called in the assay?
// result inactive

// query Any idea what this test logged for CC1=C(C(=O)Nc2ccccc2)SCCO1 ?
// result inactive

// query What was the test verdict on N#CC(CCc1ccc(Cl)cc1)(Cn1cncn1)c1ccccc1 (centres undefined) ?
// result inactive

// query What outcome does the record of this test show for C=CC1(C)OC(=O)N(c2cc(Cl)cc(Cl)c2)C1=O (centres undefined) ?
// result inactive

// query What did the test return for CC(Oc1ccc(Cl)cc1Cl)C(=O)O (centres undefined) ?
// result inactive

// query Recorded test call requested for CCNc1nc(Cl)nc(NCC)n1
// result inactive

// query Check the results log: what was the call for CCCCC(CC)COC(=O)c1ccccc1C(=O)OCC(CC)CCCC (centres undefined) ?
// result inactive

* * *

Read-out: Monokine induced gamma interferon (MIG), CXCL9 (gene 4283)
Experiment: BSK_BE3C_MIG: BioMAP Diversity Plus: BE3C Assay for Monokine induced gamma interferon (MIG) Biomarker Activity (AID 2283035);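 as to outcome: MIG protein measured by ELISA in BE3C cultures after 24 h of dosing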
Details: primary human bronchial epithelial cells; actives raise or lower the signal
Activity calls are given as the source filed them. How the source made its calls: active means hit-call score of the fitted dose curve at least 0.9, where 1 is the maximum; inactive means score below 0.9.
Please state which outcome applies, choosing from active, inactive

// query Record request — test call for O=C(Nc1ccccc1)Nc1ccnc(Cl)c1
// result inactive

Others:
// query I'd appreciate the recorded outcome for C#CCOS(=O)OC1CCCCC1Oc1ccc(C(C)(C)C)cc1 (configuration not stated) from this test.
// result active

* * *

Read-out: UDP glucuronosyltransferase (UGT1A6), UGT1A6 (gene 54578)
Assay: LTEA_HepaRG_UGT1A6: Life Technologies and Expression Analysis (LTEA) Assay for UDP glucuronosyltransferase (UGT1A6) using HepaRG (AID 2283539)
Conditions: mRNA level, 48 h; actives raise or lower the signal
Procedure: LTEA_HepaRG is a cell based, multiplexed-readout assay that uses HepaRG, a human liver cell line, with measurements taken at 48 hours after chemical dosing on a 96-well plate.LTEA_HepaRG_UGT1A6 is one of 102 assay component(s) measured in the LTEA HepaRG cell culture assay. It is a marker of NR mediated metabolism.Data from the assay component LTEA_HepaRG_UGT1A6 was analyzed into 1 endpoint. […]
Active and inactive are the calls of the source. Rule for the calls: active = hit-call score of the fitted dose curve at least 0.9, where 1 is the maximum; inactive = score below 0.9.
measureName: AC50

Please review the entries below; each comes with its answer.
// query Request the reported AC50 associated with O=C(O)COc1nc(Cl)c(Cl)cc1Cl
// result inactive

// query Name the reported AC50 value associated with the molecule CCOC(=O)C(Cl)Cc1cc(-n2nc(C)n(C(F)F)c2=O)c(F)cc1Cl (stereo unspecified)
// result inactive

// query Field request: AC50 | item: Cc1c(F)c(F)c(COC(=O)C2C(/C=C(\Cl)C(F)(F)F)C2(C)C)c(F)c1F (stereo unspecified)
// result inactive

// query # lookup: AC50 of CON(C)C(=O)Nc1ccc(Cl)c(Cl)c1
// result inactive

// query Looking for the measured AC50 of COP(=S)(OC)Oc1nc(Cl)c(Cl)cc1Cl , can you help?
// result inactive

// query What value of AC50 has been reported for the following molecule? CCON=C(CC)C1=C(O)CC(c2c(C)cc(C)cc2C)CC1=O (stereo unspecified)
// result inactive

Next:
// query // AC50 lookup, key: OC(c1ccc(Cl)cc1)(c1cncnc1)c1ccccc1Cl (stereo unspecified)
// result 74.1 µM (active)
